Biological target: human HP4 receptor (Homo sapiens, UniProt P43116)
Construct: a plasmid with a complete open reading frame in the sense orientation was isolated; expressed in transfected cells; host or cells: COS-7 cells (ATCC CRL 1651), transient DEAE-dextran transfection with pBC/HP4
Sequence (P43116 whole entry): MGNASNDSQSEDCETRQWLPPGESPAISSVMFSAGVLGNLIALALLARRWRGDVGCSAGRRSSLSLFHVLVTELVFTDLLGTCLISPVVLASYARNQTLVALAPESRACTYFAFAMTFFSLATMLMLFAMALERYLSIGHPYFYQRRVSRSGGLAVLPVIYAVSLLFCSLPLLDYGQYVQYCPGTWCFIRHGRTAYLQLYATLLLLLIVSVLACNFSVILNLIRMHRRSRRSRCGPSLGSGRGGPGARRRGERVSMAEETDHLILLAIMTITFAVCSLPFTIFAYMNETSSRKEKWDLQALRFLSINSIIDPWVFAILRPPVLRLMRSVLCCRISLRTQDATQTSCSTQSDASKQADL
Assay: Competition of [3H]-PGE2 binding to membranes of HP4-transfected COS-7 cells
Conditions: [3H]-PGE2 5 nM, 100 μg protein/tube, 60 minutes at room temperature; FIG. 1A-1C
Procedure: Monolayers of COS-7 cells (ATCC CRL 1651; 70-80% confluent) were rinsed with Phosphate Buffered Saline (PBS, Ca/Mg-free) in 150×25 mm culture dishes. Ten ml transfection mix, consisting of 5 μ/ml plasmid DNA and 0.5 mg/ml DEAE-dextran in PBS, was added to each dish and cells were incubated for 30 min at 37° C. […] Membrane pellets were then diluted in ice-cold 50 mM Tris-HCl buffer at pH 7.4 using a sonicator set at 50 watts. […] The filters were dried, placed in scintillation fluid and counted.
Observed Property: competition of [3H]-PGE2 binding

CCCCC[C@H](O)/C=C/[C@H]1[C@H](O)CC(=O)[C@@H]1C/C=C\CCCC(=O)O [PGE2, Prostaglandin E2] | strongest competitors
CCCCC[C@H](O)/C=C/[C@H]1[C@H](O)CC(=O)[C@@H]1CCCCCCC(=O)O [PGE1] | strongest competitors
